- SUBJECT OF TEST: GRK2 (Homo sapiens, UniProt P25098)
- Construct: purchased SignalChem A14-10G
- ASSAY SUMMARY: ADPGlo GRK2 Inhibition Assay (Example 8)
- Type: biochemical
- COND: ADPGlo GRK2 enzyme assay; read-out: A: Enzymatic GRK2: IC50 (nM) (Example 8)
MEASURED PROPERTY: IC50 (nM)
Kindly provide the numeric value in nM only, without the unit symbol.

COMPOUND | IC50 / nM
Cn1c(CNc2cc(C(=O)N[C@@H]3COCc4ccccc43)ccn2)nnc1-c1ccncn1 | 18.7
Cn1c(CNc2cccc(C(=O)NCc3ccc(C(F)F)cc3)c2)nnc1-c1ccncn1 | 64.2
CCCn1c(CNc2cccc(C(=O)N[C@@H](C)c3cccc(OC)c3)c2)nnc1-c1ccncn1 | 14.1
Cn1c(CNc2cccc(C(=O)NCc3cc(F)ccc3N3CCOCC3)c2)nnc1-c1ccncn1 | 104
C[C@@H](NC(=O)c1cccc(NCc2nnc(-c3ccncc3F)n2C)c1)c1ncccc1Cl | 54.7
Cn1c(CNc2cccc(C(=O)NCc3ccccc3S(=O)(=O)N3CCCCC3)c2)nnc1-c1ccncn1 | 50.5

Query: Requested field: IC50. Item: "COc1ccc(C)nc1CNC(=O)c1cccc(NCc2nnc(-c3ccncn3)n2C)c1"
Reply: 67.5

Query: And "CNS(=O)(=O)c1ccccc1CNC(=O)c1cccc(NCc2nnc(-c3ccncn3)n2C)c1" ?
Reply: 62.5

Query: And CCn1ccnc1C(C)NC(=O)c1cccc(NCc2nnc(-c3ccncn3)n2C)c1 (stereo not drawn) ?
Reply: 189

* * *

- SUBJECT OF TEST: GRK2 (Homo sapiens)
- Construct: purchased SignalChem A14-10G
- ASSAY SUMMARY: ADPGlo GRK2 Inhibition Assay (Example 8)
- Type: biochemical
- COND: Enzyme Assay A, ADPGlo (Example 8); read-out: A: Enzymatic GRK2: IC50 (nM) (Example 8)
Each entry below carries its recorded IC50.
Kindly provide the numeric value in nM only, without the unit symbol.

Query: Requested field: IC50. Item: "Cn1c(CNc2cccc(C(=O)N[C@@H](CCO)c3ccccc3)c2)nnc1-c1ccncn1"
Reply: 65.9

Query: And "Cc1cc2c(cc1CNC(=O)c1ccnc(NCc3nnc(-c4ccncn4)n3C)c1)OCCO2" ?
Reply: 22.1

Query: And "CC(C)n1nccc1CNC(=O)c1cccc(NCc2nnc(-c3ccncc3)[nH]2)c1" ?
Reply: 20

Query: And "CCCn1c(CNc2cccc(C(=O)N[C@@H]3COc4cc(F)ccc43)c2)nnc1-c1ccncn1" ?
Reply: 3.35

Query: And "Cn1c(CNc2cccc(C(=O)N[C@@H]3CCOc4cccnc43)c2)nnc1-c1ccncn1" ?
Reply: 1.3

* * *

- SUBJECT OF TEST: GRK2 (Homo sapiens)
- Construct: purchased SignalChem A14-10G
- Sequence (P25098 1-689): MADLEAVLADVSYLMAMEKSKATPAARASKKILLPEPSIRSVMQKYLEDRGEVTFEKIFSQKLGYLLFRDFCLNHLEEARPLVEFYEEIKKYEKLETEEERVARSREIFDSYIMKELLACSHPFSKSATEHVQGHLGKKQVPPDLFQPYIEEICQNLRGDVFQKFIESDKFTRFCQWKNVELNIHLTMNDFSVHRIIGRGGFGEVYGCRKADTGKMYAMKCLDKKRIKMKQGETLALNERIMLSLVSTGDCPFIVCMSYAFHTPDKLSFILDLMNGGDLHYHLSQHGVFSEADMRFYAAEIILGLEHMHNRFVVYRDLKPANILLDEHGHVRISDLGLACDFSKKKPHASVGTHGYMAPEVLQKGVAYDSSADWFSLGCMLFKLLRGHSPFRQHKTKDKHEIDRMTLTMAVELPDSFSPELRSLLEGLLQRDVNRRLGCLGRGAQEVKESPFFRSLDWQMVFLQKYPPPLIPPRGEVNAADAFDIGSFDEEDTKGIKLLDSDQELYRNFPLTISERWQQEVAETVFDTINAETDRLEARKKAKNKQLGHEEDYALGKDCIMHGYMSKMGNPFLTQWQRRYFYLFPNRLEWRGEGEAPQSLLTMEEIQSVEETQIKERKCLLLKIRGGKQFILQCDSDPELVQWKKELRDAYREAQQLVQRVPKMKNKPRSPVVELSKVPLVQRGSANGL
- ASSAY SUMMARY: GRK2 Inhibition Assay (TR-FRET, Example 7)
- Format: biochemical
- COND: Enzyme Assay B, TR-FRET (Example 7); read-out: B: Enzymatic GRK2: IC50 (nM) (Example 7)
Threshold 20 nM: IC50 strictly smaller gives Yes, otherwise No.

Observe how each entry below is paired with its result.
MOLECULE | DISCRETE LABEL
Cn1c(CNc2cccc(C(=O)N[C@@H]3CCOc4ccc(F)cc43)c2)nnc1-c1ccncn1 | Yes
Cc1cccc([C@H](CO)NC(=O)c2ccnc(NCc3nnc(-c4ccncn4)n3C)c2)c1 | Yes
COCCCn1c(CNc2cccc(C(=O)NCc3cccnc3C(F)(F)F)c2)nnc1-c1ccncn1 | Yes

Query: Hello, is IC50 of the following molecule strictly smaller than 20 nM? "Cn1c(CNc2cccc(C(=O)N[C@H]3CCOc4ccccc43)c2)nnc1-c1ccncc1Cl"
Reply: No

Query: And "Cn1c(CNc2cc(C(=O)NCc3cccc4c3OCC4)ccn2)nnc1-c1ccncn1" ?
Reply: Yes

Query: And "O=C(N[C@H]1COc2ccccc21)c1cccc(NCc2nnc(-c3ccncn3)n2CCO)c1" ?
Reply: Yes

Query: And "Cc1cccc2nnc(CNC(=O)c3cccc(NCc4nnc(-c5ccncn5)n4C)c3)n12" ?
Reply: Yes

Query: And CCOc1ccc(C(CO)NC(=O)c2cccc(NCc3nnc(-c4ccncn4)n3C)c2)cn1 (stereo not shown) [drawing 577] ?
Reply: Yes

Query: And "CCc1cnccc1CNC(=O)c1cccc(NCc2nnc(-c3ccncc3F)n2C)c1" ?
Reply: No

Query: And "CCCn1c(CNc2cccc(C(=O)N[C@H]3CCOc4ccccc43)c2)nnc1-c1ccncn1" ?
Reply: Yes

Query: And "Cn1c(CNc2cccc(C(=O)N[C@@H]3CCOc4cc(C(F)(F)F)ccc43)c2)nnc1-c1ccncn1" ?
Reply: No

Query: And "O=C(N[C@H]1CCOc2ccccc21)c1cccc(NCc2nnc(-c3ccncc3)n2CCO)c1" ?
Reply: Yes

Query: And "COCCOc1cccc(CNC(=O)c2cccc(NCc3nnc(-c4ccncn4)n3C)c2)c1" ?
Reply: No

Values compiled from patent US20230009608A1.
